Data provenance: ChEMBL document CHEMBL1125486

Reported solubility by item:
- PROCEDURE_SUMMARY: Aqueous solubility
- Format: physicochemical
- PROTOCOL_CONDITIONS: water; read-out: S

# GIVEN_SMILES, solubility
data = [
    ("O=C(CCCOc1ccc2[nH]c3nc(O)nc-3cc2c1)N1CCN(Cc2ccc(C(F)(F)F)cc2)CC1", "< 10000 µg/mL"),
    ("O=C(CCCOc1ccc2[nH]c3nc(O)nc-3cc2c1)N1CCC(N2CCCCC2)CC1", "> 10000 µg/mL"),
    ("Oc1nc2cc3cc(N4CCCC4)ccc3[nH]c-2n1", "< 10000 µg/mL"),
    ("O=C1CN2Cc3cc(OCCCC(=O)N4CCN(CC5CCCCC5)CC4)ccc3N=C2N1", "> 5000 µg/mL"),
    ("O=C(CCCOc1ccc2[nH]c3nc(O)nc-3cc2c1)N1CCN(Cc2ccc(F)cc2)CC1", "> 10000 µg/mL"),
]
